This section presents molecules with their documented 24 hr Dox Inducible TNFaFLGluc 293FRT/TO: TNF/PD1 values.
# Tested on: TNFα-FL/Gaussia Luciferase
# experimental details: Dox Induced TNFα-FL-Gluc Assay
# Assay type: cell-based
# recorded conditions: ratio of TNFaFLGluc IC50 to PD1ssGluc IC50
// keep it numeric: no unit symbol after the value

Solved cases (2 shown):
O=C(Nc1nc([C@H]2CCCN2c2ccc(Cl)cc2)cs1)c1cccn1Cc1ccncc1 ... 50.2
CC(=O)N1CCC(Oc2cc(F)c(N3CCC[C@@H]3c3csc(NC(=O)c4cccn4Cc4ccnc(F)c4)n3)c(F)c2)CC1 ... 9.81

Q) Can you share its 24 hr Dox Inducible TNFaFLGluc 293FRT/TO: TNF/PD1? I mean this molecule: Cc1cn(C(C)C)nc1/C=C/c1csc(NC(=O)c2cccn2Cc2ccnc(F)c2)n1
A) 36.6

Q) Returns the measured 24 hr Dox Inducible TNFaFLGluc 293FRT/TO: TNF/PD1 for the input molecule. Input: CC(=O)N1CCC(Nc2ccc(N3CCC[C@@H]3c3csc(NC(=O)c4cccn4Cc4ccnc(F)c4)n3)cc2)CC1
A) 4.4

Q) Entry CC(=O)N1CCC(C)(Oc2ccc(N3CCC[C@@H]3c3csc(NC(=O)c4cccn4Cc4ccnc(F)c4)n3)cc2)CC1 has what 24 hr Dox Inducible TNFaFLGluc 293FRT/TO: TNF/PD1?
A) 8.64

Q) I'd like to know its 24 hr Dox Inducible TNFaFLGluc 293FRT/TO: TNF/PD1. The molecule in question is C[C@@H](O)c1ccc(N2CCC[C@@H]2c2csc(NC(=O)c3cccn3Cc3ccnc(F)c3)n2)cc1
A) 11.9

Q) Quick one: 24 hr Dox Inducible TNFaFLGluc 293FRT/TO: TNF/PD1 for CC(=O)NCc1ccc(N2CCC[C@@H]2c2csc(NC(=O)c3cccn3Cc3ccnc(F)c3)n2)cc1 ?
A) 15.4

Q) Which 24 hr Dox Inducible TNFaFLGluc 293FRT/TO: TNF/PD1 reading was recorded for the molecule CC(=O)N1CCCCC1c1ccc(N2CCC[C@@H]2c2csc(NC(=O)c3cccn3Cc3ccncc3)n2)cc1 (stereo partly drawn) ?
A) 17.4

Q) Give its 24 hr Dox Inducible TNFaFLGluc 293FRT/TO: TNF/PD1 value. Item: O=C(Nc1nc([C@H]2CCCN2c2ccc(OC3CN(C(=O)C4CC4)C3)cc2)cs1)c1cccn1Cc1ccnc(F)c1
A) 9.75

Q) Data request, read-out 24 hr Dox Inducible TNFaFLGluc 293FRT/TO: TNF/PD1, for CNC(=O)Nc1ccc(N2CCC[C@@H]2c2csc(NC(=O)c3cccn3Cc3ccnc(F)c3)n2)cc1
A) 23.5

Q) Dear colleague, I am looking for the recorded 24 hr Dox Inducible TNFaFLGluc 293FRT/TO: TNF/PD1 of the following molecule: O=C(Nc1nc([C@H]2CCCN2c2ccc(C3CCCNC3)cc2)cs1)c1cccn1Cc1ccncc1 (stereo partly drawn)
A) 12.7

Q) Quick check: 24 hr Dox Inducible TNFaFLGluc 293FRT/TO: TNF/PD1 of O=C(Nc1nc([C@H]2CCCN2c2ccc(OCCO)cc2)cs1)c1cccn1Cc1ccnc(F)c1 ?
A) 19.3

* * *

# experimental details: Liver Microsome Stability Assay (mouse)
# recorded conditions: mouse liver microsomes, with NADPH, 1.0 uM compound
Liver Microsome Stability (Multiple Species): Mouse - % Remaining after 30 min w/NADPH values by entry
# unit: % | format: bare number

Known Liver Microsome Stability (Multiple Species): Mouse - % Remaining after 30 min w/NADPH results, listed for orientation:
Cc1nc(/C=C/c2csc(NC(=O)c3cccn3Cc3ccncc3)n2)cn1C ... 6.7
CC(C)n1ccc(/C=C/c2csc(NC(=O)c3cccn3Cc3ccncc3)n2)n1 ... 0.94
CC(=O)N1CCC[C@H](Oc2ccc(N3CCC[C@@H]3c3csc(NC(=O)c4cccn4Cc4ccnc(F)c4)n3)cc2)C1 ... 1
CC(=O)N1CCC(Oc2c(F)cc(N3CCC[C@@H]3c3csc(NC(=O)c4cccn4Cc4ccnc(F)c4)n3)cc2F)CC1 ... 1.43
O=C(Nc1nc([C@H]2CCCN2)cs1)c1cccn1Cc1ccncc1 ... 35.8

Q) Consider the compound shown here: O=C(Nc1nc(/C=C/c2ncco2)cs1)c1cccn1Cc1ccncc1 What is its recorded Liver Microsome Stability (Multiple Species): Mouse - % Remaining after 30 min w/NADPH?
A) 0.97

Q) Can you look up the measured Liver Microsome Stability (Multiple Species): Mouse - % Remaining after 30 min w/NADPH of CC(=O)N1CCC(Oc2ccc(N3CCC[C@@H]3c3csc(NC(=O)c4cccn4Cc4ccnc(F)c4)n3)cc2)CC1 for me?
A) 52.7

* * *

# experimental details: Liver Microsome Stability Assay (rat)
# recorded conditions: rat liver microsomes, with NADPH, 1.0 uM compound
readout kind: Liver Microsome Stability (Multiple Species): Rat - % Remaining after 30 min w/NADPH (%)
Field: numeric (%). Do not append units.

Some solved entries appear below for comparison.
NC(=O)Nc1ccc(N2CCC[C@@H]2c2csc(NC(=O)c3cccn3Cc3ccnc(F)c3)n2)cc1 ... 44.7
O=C(O)CCCCn1cccc1C(=O)Nc1nc([C@H]2CCCN2c2ccccc2)cs1 ... 83.1
O=C(Nc1nc(/C=C/c2cnccn2)cs1)c1cccn1Cc1ccncc1 ... 1.88
O=C(Nc1nc(/C=C/c2cn(C3CCCCC3)cn2)cs1)c1cccn1Cc1ccncc1 ... 4.57
O=C(Nc1nc([C@H]2CCCN2c2ccccc2)cs1)c1cccn1CCCc1c[nH]nn1 ... 1.26

Q) Requested field: Liver Microsome Stability (Multiple Species): Rat - % Remaining after 30 min w/NADPH. Item: CC(C)n1ccc(/C=C/c2csc(NC(=O)c3cccn3Cc3ccncc3)n2)n1
A) 0.27

Q) Which value of Liver Microsome Stability (Multiple Species): Rat - % Remaining after 30 min w/NADPH has been reported for Cc1ocnc1/C=C/c1csc(NC(=O)c2cccn2Cc2ccncc2)n1 in the records?
A) 0.28

Q) Liver Microsome Stability (Multiple Species): Rat - % Remaining after 30 min w/NADPH for N#CC[C@@H]1CC[C@H]1Cn1cccc1C(=O)Nc1nc([C@H]2CCCN2c2ccccc2)cs1 ?
A) 0.2

Q) If you can, please state the reported Liver Microsome Stability (Multiple Species): Rat - % Remaining after 30 min w/NADPH value of O=C(Nc1nc([C@H]2CCCN2c2ccccc2)cs1)c1cccn1Cc1cccc(F)c1 .
A) 33.5

Q) Record request: Liver Microsome Stability (Multiple Species): Rat - % Remaining after 30 min w/NADPH value, item O=C(Nc1nc(/C=C/c2cn(CCO)cn2)cs1)c1cccn1Cc1ccncc1
A) 19.2

Q) Can you look up the measured Liver Microsome Stability (Multiple Species): Rat - % Remaining after 30 min w/NADPH of CC(=O)N1CCC[C@H](Oc2ccc(N3CCC[C@@H]3c3csc(NC(=O)c4cccn4Cc4ccnc(F)c4)n3)cc2)C1 for me?
A) 2.51

* * *

# System: IL-2-FL/Gaussia Luciferase
# experimental details: Dox Induced IL2-FL-Gluc Assay
# Assay type: cell-based
# recorded conditions: ratio of IL2FLGluc IC50 to PD1ssGluc IC50
readout kind: 24 hr Dox Inducible IL2FLGluc 293FRT/TO: IL2/PD1
A bare number is all that is needed in reply.

Solved entries (count: 5):
CN(C)C(=O)Nc1ccc(N2CCC[C@@H]2c2csc(NC(=O)c3cccn3Cc3ccnc(F)c3)n2)cc1 ... 2.1
NC(=O)Nc1ccc(N2CCC[C@@H]2c2csc(NC(=O)c3cccn3Cc3ccnc(F)c3)n2)cc1 ... 3
O=C(Nc1nc([C@H]2CCCN2c2ccc(OC3CCN(C(=O)CF)CC3)cc2)cs1)c1cccn1Cc1ccnc(F)c1 ... 2
Cc1cnccc1Cn1cccc1C(=O)Nc1nc([C@H]2CCCN2c2ccccc2)cs1 ... 2.3
CC(=O)N1CCC(Oc2ccc(N3CCC[C@@H]3c3csc(NC(=O)c4cccn4Cc4ccnc(F)c4)n3)cc2C#N)CC1 ... 1.2

Q) Entry O=C(Nc1nc([C@H]2CCCN2c2ccc(CO)cc2)cs1)c1cccn1Cc1ccnc(F)c1 has what 24 hr Dox Inducible IL2FLGluc 293FRT/TO: IL2/PD1?
A) 1.8

Q) Query (molecule): CC(=O)N(C)c1ccc(N2CCC[C@@H]2c2csc(NC(=O)c3cccn3Cc3ccncc3)n2)cc1 ; field requested: 24 hr Dox Inducible IL2FLGluc 293FRT/TO: IL2/PD1
A) 1.9

* * *

# Tested on: multiple myeloma cell line NCI-H929
# experimental details: H929 Cell Viability Assay
# Assay type: cell-based, human
# recorded conditions: Homo sapiens, NCI-H929, 48 h, NCI-H929 cells, Celltiter-Glo
# Procedure: The human multiple myeloma cell line NCI-H929 was cultured in Advanced RPMI 1640 media (Gibco®) supplemented with 6% fetal bovine serum, 2 mM Glutamine, and 1× Penicillin/Streptomycin. […] After 48 hours, Celltiter-Glo® (Promega) was added to each well and luciferase signal was quantified using Tecan Infinite M1000 Pro for cell viability determination. […]
The entries below come with measured pEC50 values attached.
To interpret pEC50, take it as minus log10 of a concentration measured in moles per litre.

Q) # get_value(readout='pEC50', item= CC(C)n1cnc(/C=C/c2csc(NC(=O)c3cccn3Cc3ccnc(F)c3)n2)c1 )
A) 4.70

Q) Given CC(=O)N1CCC(Oc2ccc(N3CCC[C@@H]3c3csc(NC(=O)c4cccn4Cc4ccnc(F)c4)n3)cn2)CC1 , state its recorded pEC50.
A) 5.54

Q) Query: pEC50; subject: O=C(Nc1nc([C@H]2CCCN(c3ccccn3)C2)cs1)c1cccn1Cc1ccncc1
A) 4.76

Q) GET /values?readout=pEC50&item= O=C(Nc1nc(/C=C/c2cn3ccccc3n2)cs1)c1cccn1Cc1ccncc1
A) 4.73

Q) Entry under review: O=C(Nc1nc([C@H]2CCCN2c2ccc(OC(F)(F)F)cc2)cs1)c1cccn1CC1CCOCC1 . Reported pEC50?
A) 5.19

Q) Look at this compound and give its reported pEC50. CCc1ccc(N2CCC[C@@H]2c2csc(NC(=O)c3cccn3Cc3ccncc3)n2)nc1
A) 6.85
